Provenance of the data: patent US20220033501A1

target entity: T1, monkey TIM-3 extracellular domain protein with hFc tag (cTIM-3-hFc) (monkey)
T1 construct: not shown: human IgG Fc fragment (hFc) of the pCpC vector
T1 chain: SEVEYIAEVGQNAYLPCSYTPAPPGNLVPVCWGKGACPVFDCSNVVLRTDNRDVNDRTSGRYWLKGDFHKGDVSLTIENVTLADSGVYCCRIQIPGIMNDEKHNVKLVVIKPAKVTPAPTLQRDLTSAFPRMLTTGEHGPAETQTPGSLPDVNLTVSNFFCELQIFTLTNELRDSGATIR
assay procedure: ELISA, coated monkey TIM-3 ECD protein, 0 nM antibody
List of OD450 values.
Give a plain numeric answer without units written out.

Illustrative cases are given below, each with its answer.
- binder: "7A4F10 fully human TIM-3 antibody (human IgG4, kappa) (antibody, V domains shown) VH: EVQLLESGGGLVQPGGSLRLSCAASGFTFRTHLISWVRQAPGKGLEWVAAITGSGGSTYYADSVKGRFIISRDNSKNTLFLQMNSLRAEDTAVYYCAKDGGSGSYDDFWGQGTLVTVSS VL: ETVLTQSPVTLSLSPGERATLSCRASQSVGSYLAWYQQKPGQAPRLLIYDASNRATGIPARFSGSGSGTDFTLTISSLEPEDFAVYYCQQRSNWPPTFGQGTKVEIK"
  OD450: 0.13
- binder: "57F4E5 fully human TIM-3 antibody (human IgG4, kappa) (antibody, V domains shown) VH: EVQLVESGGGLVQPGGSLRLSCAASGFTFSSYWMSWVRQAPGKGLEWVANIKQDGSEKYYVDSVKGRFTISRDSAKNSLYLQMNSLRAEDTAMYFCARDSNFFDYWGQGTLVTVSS VL: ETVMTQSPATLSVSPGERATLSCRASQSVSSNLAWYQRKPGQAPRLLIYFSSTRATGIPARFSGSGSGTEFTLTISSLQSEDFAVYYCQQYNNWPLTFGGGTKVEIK"
  OD450: 0.16

# input Data request, read-out OD450, for 34B6D8 fully human TIM-3 antibody (human IgG4, kappa) (antibody, V domains shown) VH: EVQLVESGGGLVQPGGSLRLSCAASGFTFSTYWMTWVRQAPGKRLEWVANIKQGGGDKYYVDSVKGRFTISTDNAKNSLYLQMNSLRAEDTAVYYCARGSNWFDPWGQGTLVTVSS VL: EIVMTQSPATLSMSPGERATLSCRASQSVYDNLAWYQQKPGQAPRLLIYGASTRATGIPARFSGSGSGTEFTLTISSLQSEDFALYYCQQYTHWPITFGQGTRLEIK
# output 0.17
